READOUT_KIND: melting point

Use these answered entries as a reference point.
| COMPOUND | ENDPOINT_VALUE |
| --- | --- |
| CC(C)n1nc(-c2ccc(OCC(N)=O)nc2-c2ccccc2)ccc1=O | 137 to 138 °C |
| COC1(OC)C2(Cl)C(Cl)=C(Cl)C1(Cl)C(O)C2O (stereo unspecified) | 160 to 162 °C |
| Cc1cc(=O)c(C(=O)Nc2nnc(C)s2)c(C)o1 | 203 to 204 °C |

Each of the following entries comes with a recorded value; kindly state melting point for each.
1. Cc1c(Cl)cnc(N)c1F
2. Cn1c2ccc([N+](=O)[O-])cc2c2c3ccccc3c(=O)[nH]c21
3. O=C(O)C(c1ccccc1)n1cnc2[nH]ncc2c1=S (stereo unspecified)
4. CCC(C)N1C(=O)c2ccc(C)nc2C1=O (stereo unspecified)
5. N=C(N)Nc1ncc(CO)s1
6. COc1cc(C2C3=C(COC3=O)Nc3ccc4cc[nH]c4c32)ccc1F (stereo unspecified)
7. O=C(Nc1ccc(Oc2cccc3c2CCC3=O)nc1)c1ccc(Cl)c(Cl)c1
8. COc1ccc(Cc2cnc(NCCCCc3ncc(Br)cc3C)[nH]c2=O)cc1

RESULT:
1: 136 to 138 °C; 2: > 300 °C; 3: 95 to 98 °C; 4: 105 to 106 °C; 5: 168 to 170 °C; 6: 170 to 172 °C; 7: 202 to 204 °C; 8: 149 to 150 °C

Each of the following entries comes with a recorded value; kindly state melting point for each.
1. Cc1c(Cl)nc2sc(S(=O)(=O)Cc3ccccc3)nn2c1=O
2. CC(C)(C)OC(=O)N[C@H]1C[C@@H](CON2C(=O)c3ccccc3C2=O)C1
3. O=C(NC1CCOc2cc(C(=O)Nc3ccncc3)ccc21)OCc1ccccc1 (stereo unspecified)
4. CN(CCSC(=O)Cc1ccccc1Nc1c(Cl)cccc1Cl)CC1(S)CCCCC1
5. Cc1nc(-c2ccccc2)n(C)c1C=NOCCO
6. CSc1cc(C)nc(SC)c1NC(=O)CCCCCCSc1nc2cccc(C(F)(F)F)c2o1
7. Cc1nccn1Cc1ccccc1
8. CCCc1c(OCCCOc2cccc(N)c2C#N)ccc(C(C)=O)c1O

RESULT:
211 to 213 °C
120 to 122 °C
226 to 228 °C
55 °C
95 to 97 °C
129 to 131 °C
51 to 53 °C
120 to 122 °C

----------
READOUT_KIND: melting point

Each of the following entries comes with a recorded value; kindly state melting point for each.
1. O=C(NC(=S)Nc1ccc(F)cc1)c1ccccc1
2. Cc1cccc(-c2nc(O)c(C)s2)c1Cl
3. Cc1cc(C)cc(C(=O)c2c(-c3ccc(OCCN(C)C)cc3)oc3ccccc23)c1
4. CCCCCN1N=C(c2ccc(OCC)c(OCC)c2)[C@@H]2CCCC[C@@H]2C1=O (relative stereo)

RESULT:
82 °C
183 to 184 °C
132 to 135 °C
98 to 99 °C

Each of the following entries comes with a recorded value; kindly state melting point for each.
1. c1ccc2c(c1)NCc1c(-c3noc(C4CC4)n3)ncn1-2
2. CCC(COCc1cc(OC)c(O)c(OC)c1)(c1cccs1)N(C)C (stereo not given)
3. O=C(C=P(c1ccccc1)(c1ccccc1)c1ccccc1)COc1ccccc1Cl

RESULT:
1. 243 to 245 °C
2. 126 to 127 °C
3. 107 to 109 °C
